Target: gp120 envelope glycoprotein (HIV-1, UniProt P04578 P04578:33-511)
Assay: competition; ID50, gp120/CD4 ELISA; PD oligos did not inhibit V3 Mab binding
Conditions: tags: gp120 capture ELISA kit
property label: IC50 (nM)
One number for each entry, in nM.

Query string: Using the record for GTGGTGGGTGGGTGGGTGGTGGGTGGTGGTTGTGGGTGGGTGGTG (ssDNA, phosphodiester) [I100-07] , report its IC50.
Result string: 800
